# Test Details: Ritonavir pharmacokinetic parameters during pregnancy and postpartum
# Assay type: in vivo, human
# Experimental Parameters: female, human, plasma, oral, AUC0-12, twice daily dosing; third trimester; median (interquartile range)
Assay Readout: AUC(0-t) (ng·h/mL)
Response body: numeric value in ng·h/mL, unit text excluded.

Noted for CC(C)c1nc(CN(C)C(=O)N[C@H](C(=O)N[C@@H](Cc2ccccc2)C[C@H](O)[C@H](Cc2ccccc2)NC(=O)OCc2cncs2)C(C)C)cs1 : its AUC(0-t) reads 3800
